# Tested on: COLO 205 colon
# measurementNotes: NCI tumour cell line growth inhibition, 48 h; in the data active = GI50 below about 0.43 µM; inactive = the rest
Outcome codes: y (active), n (inactive)

>  <compound>
COc1ccc2ncn(-c3cc(O[C@H](C)c4ccccc4C(F)(F)F)c(C(N)=O)s3)c2c1

>  <labelClass>
y

$$$$
>  <compound>
O=c1c2c(nc3n1CCS3)[nH]c1cc([N+](=O)[O-])ccc12

>  <labelClass>
n

$$$$
>  <compound>
CC1Cc2c(Cl)ncnc2N(C)c2ccc(Cl)cc21 (stereo unspecified)

>  <labelClass>
y

$$$$
>  <compound>
O=C1Nc2c(ccc(Cl)c2Cl)/C1=C/c1cc(Br)c(O)c(Br)c1

>  <labelClass>
n

$$$$
>  <compound>
O=c1oc2ccc(I)cc2c(=O)n1-c1ccc(Br)cc1F

>  <labelClass>
n

$$$$
>  <compound>
CCOC(=O)C1=CCCC[C@H]1S(=O)(=O)Nc1ccc(F)cc1Cl

>  <labelClass>
n

$$$$
>  <compound>
O=C1N[C@@H]2[C@@H](O)[C@@H](O)[C@H](O)C[C@H]2c2cc3c(c(O)c21)OCCO3

>  <labelClass>
y

$$$$
>  <compound>
Cc1c(C)n(CCCN2CCN(C)CC2)c2ccc(Oc3cccc(C(=O)N4CCN(CCc5ccc(F)cc5)CC4)c3)cc12

>  <labelClass>
n

$$$$
>  <compound>
Cc1ccc(O)c(NC(=O)c2cccc(Nc3ccnc(C(F)(F)F)c3)c2)c1

>  <labelClass>
n

$$$$
>  <compound>
CNC(=O)c1ccc(N2C(=S)N(c3cnc(C#N)c(C(F)(F)F)c3)C(=O)C23CCC3)cc1F

>  <labelClass>
n

$$$$
>  <compound>
COc1cc(/C=C/c2cc(/C=C/c3ccc(O)c(OC)c3)n(C(=O)c3ccc(Cl)cc3)n2)ccc1O

>  <labelClass>
n

$$$$
>  <compound>
Clc1c(Cl)[n+](Cc2ccc3ccccc3c2)cn1Cc1ccc2ccccc2c1

>  <labelClass>
n

$$$$
>  <compound>
CC(C)(C)C(=O)OCOP(=O)(NCc1ccccc1)C1CCCN(O)C1=O (stereo unspecified)

>  <labelClass>
n

$$$$
>  <compound>
CCc1ccc(Oc2c(-c3ccc(OCc4ccc(Cl)cc4)cc3O)n[nH]c2C(F)(F)F)cc1

>  <labelClass>
n

$$$$
>  <compound>
C=C(c1ccc(OC)c(/C=C/C(=O)c2ccc3c(c2)OCO3)c1)c1cc(OC)c(OC)c(OC)c1

>  <labelClass>
n

$$$$
>  <compound>
COc1ccc(Nc2nc3cc(N)cc(N)c3nc2-c2ccccc2)cc1

>  <labelClass>
n

$$$$

* * *

# Tested on: HS 578T breast
# measurementNotes: NCI tumour cell line growth inhibition, 48 h; in the data active means GI50 below about 0.43 µM; inactive means the rest
Outcome codes: True (active), False (inactive)

>  <molecule>
COc1cc2c(cc1OC(C)C)[C@H](c1ccc(Cl)cc1)N(c1ccc(N(C)CC3CCC(N4CCN(C)C(=O)C4)CC3)cc1)C(=O)C2 (stereo not given in full)

>  <labelClass>
False

$$$$
>  <molecule>
O=C1N[C@@H]2[C@@H](O)[C@@H](O)[C@H](O)C[C@H]2c2cc3c(c(O)c21)OCCO3

>  <labelClass>
True

$$$$
>  <molecule>
Cc1cc2nc(NCCN)n(Cc3ccc(F)c(Cl)c3)c2cc1C

>  <labelClass>
False

$$$$
>  <molecule>
Oc1c(Cl)cc(Cl)c(Cl)c1CNCCNCc1c(O)c(Cl)cc(Cl)c1Cl

>  <labelClass>
False

$$$$
>  <molecule>
CC1Cc2c(Cl)ncnc2N(C)c2ccc(Cl)cc21 (stereo not given)

>  <labelClass>
True

$$$$
>  <molecule>
CNC(=O)c1c(C)oc2cc(Oc3ncnc4cc(OC)c(OC)cc34)ccc12

>  <labelClass>
False

$$$$
>  <molecule>
O=c1c2c(nc3n1CCS3)[nH]c1cc([N+](=O)[O-])ccc12

>  <labelClass>
False

$$$$
>  <molecule>
Cc1nn(CNc2ccccc2C(F)(F)F)c(=S)n1/N=C/c1cccc2cccnc12

>  <labelClass>
False

$$$$
>  <molecule>
O=C(CN(/C=C/C(=O)C(F)(F)F)c1ccc(Cl)cc1)c1ccc(Cl)cc1

>  <labelClass>
False

$$$$
>  <molecule>
CCCCCCCCCCCCCCCC1=NCC[N+]1(CCO)CCO

>  <labelClass>
False

$$$$

* * *

# Test system: SK-OV-3 ovarian
# measurementNotes: NCI tumour cell line growth inhibition, 48 h
observable: GI50

>  <structure>
Clc1c(Cl)[n+](Cc2ccc3ccccc3c2)cn1Cc1ccc2ccccc2c1

>  <observable>
GI50

>  <endpointResult>
1.39 µM

$$$$
>  <structure>
CN[C@H]1CN(c2ccc3c(=O)c(C(=O)O)cn(-c4nccs4)c3n2)C[C@@H]1OC

>  <observable>
GI50

>  <endpointResult>
1.08 µM

$$$$
>  <structure>
O=C1Nc2c(ccc(Cl)c2Cl)/C1=C/c1cc(Br)c(O)c(Br)c1

>  <observable>
GI50

>  <endpointResult>
4.88 µM

$$$$
>  <structure>
COc1cc(/C=C/c2cc(/C=C/c3ccc(O)c(OC)c3)n(C(=O)c3ccc(Cl)cc3)n2)ccc1O

>  <observable>
GI50

>  <endpointResult>
1.83 µM

$$$$
>  <structure>
COc1ccccc1Nc1cc(O)c2c(=O)cc(-c3ccccc3)oc2c1

>  <observable>
GI50

>  <endpointResult>
3.57 µM

$$$$
>  <structure>
CCCCCCCCCCCCCCCC1=NCC[N+]1(CCO)CCO

>  <observable>
GI50

>  <endpointResult>
4.3 µM

$$$$

* * *

# Test system: MOLT-4 leukemia
# measurementNotes: NCI tumour cell line growth inhibition, 48 h
observable: GI50

>  <molecule>
COc1cc(/C=C2\CC3C4CC=C5C[C@@H](OC(C)=O)CC[C@]5(C)C4CC[C@]3(C)C2=O)ccc1OCCN1CCCCC1 (some centres undefined)

>  <endpointResult>
1.16 µM

$$$$
>  <molecule>
CC(=O)O[C@@H]1C2CCC3C(CC[C@@]4(C)C3CC[C@@H]4C(C)N(C)C)[C@@]2(C)CC[C@@H]1NC(=O)C=C(C)C (some centres undefined)

>  <endpointResult>
2.33 µM

$$$$
>  <molecule>
O=c1oc2ccc(I)cc2c(=O)n1-c1ccc(Br)cc1F

>  <endpointResult>
1.59 µM

$$$$
>  <molecule>
CNC(=O)c1ccc(N2C(=S)N(c3cnc(C#N)c(C(F)(F)F)c3)C(=O)C23CCC3)cc1F

>  <endpointResult>
61.9 µM

$$$$

* * *

# Test system: UACC-257 melanoma
# measurementNotes: NCI tumour cell line growth inhibition, 48 h
Items are presented alongside their recorded TGI.

>  <compound>
O=C(/C=C\c1ccccc1O)c1ccc(O)cc1O

>  <systemName>
UACC-257 melanoma

>  <readingQualifier>
>

>  <TGI (µM)>
100

$$$$
>  <compound>
Cc1c(-c2cnccn2)ssc1=S

>  <systemName>
UACC-257 melanoma

>  <readingQualifier>
=

>  <TGI (µM)>
38.1

$$$$
>  <compound>
O=C1N[C@@H]2[C@@H](O)[C@@H](O)[C@H](O)C[C@H]2c2cc3c(c(O)c21)OCCO3

>  <systemName>
UACC-257 melanoma

>  <readingQualifier>
=

>  <TGI (µM)>
1.97

$$$$
>  <compound>
N#CC(c1ccccc1)N(CCCCCCN(C(=O)c1ccccc1)C(C#N)c1ccccc1)C(=O)c1ccccc1 (stereo not given)

>  <systemName>
UACC-257 melanoma

>  <readingQualifier>
=

>  <TGI (µM)>
63.9

$$$$
>  <compound>
CSc1ccc2c(cc1=O)[C@@H](NC(=O)c1cccc([N+](=O)[O-])c1)CCc1cc(O)c(O)c(O)c1-2

>  <systemName>
UACC-257 melanoma

>  <readingQualifier>
>

>  <TGI (µM)>
100

$$$$

* * *

# System: SNB-19 CNS
# measurementNotes: NCI tumour cell line growth inhibition, 48 h
Items are presented alongside their recorded TGI.

>  <compound>
O=C(O)c1cc(-c2ccc3cc4c(cc3c2)OCO4)nc2ccccc12

>  <TGI>
> 100 µM

$$$$
>  <compound>
Cc1ccc(CC(Cc2ccccc2C)C(=O)O)c(C(=O)O)c1 (configuration not stated)

>  <TGI>
> 100 µM

$$$$
>  <compound>
Fc1ccc(-c2c(-c3ccncc3)nc3n2CCS3)cc1

>  <TGI>
> 25 µM

$$$$
>  <compound>
Cc1nc2sccn2c1C(=O)NN

>  <TGI>
> 100 µM

$$$$
>  <compound>
CSC12c3cc(C)n(-c4ccc([N+](=O)[O-])cc4)c3CC(C)(C)CN1C(=O)C2Oc1ccccc1 (configuration not stated)

>  <TGI>
> 100 µM

$$$$
>  <compound>
CC(=O)O[C@@H]1C[C@]2(C(=O)c3ccccc3)C(=O)C(=O)S[C@]12c1ccccc1

>  <TGI>
> 100 µM

$$$$
>  <compound>
Cc1nn(CNc2ccccc2C(F)(F)F)c(=S)n1/N=C/c1cccc2cccnc12

>  <TGI>
> 100 µM

$$$$
>  <compound>
N#C/C(=C\c1ccc(F)cc1)c1nc(-c2cc3ccccc3oc2=O)cs1

>  <TGI>
41.1 µM

$$$$
>  <compound>
CCN1CCC(O)(c2ccc(Oc3ccc(Cl)cc3)cc2)C(C(=O)c2ccc(Oc3ccc(Cl)cc3)cc2)C1 (configuration not stated)

>  <TGI>
29.3 µM

$$$$
>  <compound>
C=CCN(c1cc(OC)c(NC(C)=O)cc1[N+](=O)[O-])S(C)(=O)=O

>  <TGI>
> 100 µM

$$$$
>  <compound>
CCc1nc(N)nc(N)c1-c1ccc(Cl)c([N+](=O)[O-])c1

>  <TGI>
> 100 µM

$$$$
>  <compound>
COc1ccccc1/C=C/c1ccnc2ccccc12

>  <TGI>
28.2 µM

$$$$
>  <compound>
CN1C(=O)C2(C)SC1(c1ccccc1)C1C(=O)N(c3ccccc3)C(=O)C12 (configuration not stated)

>  <TGI>
> 100 µM

$$$$
>  <compound>
CNC(=O)c1ccc(N2C(=S)N(c3cnc(C#N)c(C(F)(F)F)c3)C(=O)C23CCC3)cc1F

>  <TGI>
> 100 µM

$$$$
>  <compound>
COc1cc2c(cc1OC)OC(c1c(OC)ccc(OC)c1O)CC2 (configuration not stated)

>  <TGI>
> 100 µM

$$$$
>  <compound>
O=c1oc2ccc3ccccc3c2cc1-c1nnc(Nc2ccccc2)s1

>  <TGI>
65.4 µM

$$$$
>  <compound>
CCOC(=O)Cc1csc(NC(NC(=O)OCC)(C(=O)OCC)C(F)(F)F)n1 (configuration not stated)

>  <TGI>
> 100 µM

$$$$
>  <compound>
COc1ccc(C(=O)C#Cc2cn(C3CC(O)C(CO)O3)c(=O)[nH]c2=O)cc1 (configuration not stated)

>  <TGI>
> 100 µM

$$$$
>  <compound>
CCCCc1ccc(N=C(N)N)cc1

>  <TGI>
> 100 µM

$$$$
>  <compound>
OCC1C(OCc2ccccc2)C(OCc2ccccc2)C(OCc2ccccc2)CN1Cc1ccccc1 (configuration not stated)

>  <TGI>
> 100 µM

$$$$
>  <compound>
CCCCN1C(=O)C2Cc3c([nH]c4ccccc34)C(c3cccc(O)c3)N2C1=O (configuration not stated)

>  <TGI>
34.6 µM

$$$$
>  <compound>
Cc1c(C)c2ccc3oc4ccccc4c3c2oc1=O

>  <TGI>
> 100 µM

$$$$
